Assay procedure: in vivo
Condition details: pig, in vivo, level in vascular tissue at term, molar equivalent, day 14; printed as equivalent
Measured metric: concentration at 14 days
Provide a numeric answer, followed by its unit.

Request: Tell me the measured concentration at 14 days of CO[C@H]1C[C@@H]2CC[C@@H](C)[C@@](O)(O2)C(=O)C(=O)N2CCCC[C@H]2C(=O)O[C@H]([C@H](C)C[C@@H]2CC[C@@H](OC(=O)C(C)(CO)CO)[C@H](OC)C2)CC(=O)[C@H](C)/C=C(\C)[C@@H](O)[C@@H](OC)C(=O)[C@H](C)C[C@H](C)/C=C/C=C/C=C/1C [temsirolimus] , please.
Response: 0.0488 µM
